Target: Trace amine-associated receptor 1 (Homo sapiens, UniProt Q96RJ0)
Sequence (Q96RJ0 whole entry): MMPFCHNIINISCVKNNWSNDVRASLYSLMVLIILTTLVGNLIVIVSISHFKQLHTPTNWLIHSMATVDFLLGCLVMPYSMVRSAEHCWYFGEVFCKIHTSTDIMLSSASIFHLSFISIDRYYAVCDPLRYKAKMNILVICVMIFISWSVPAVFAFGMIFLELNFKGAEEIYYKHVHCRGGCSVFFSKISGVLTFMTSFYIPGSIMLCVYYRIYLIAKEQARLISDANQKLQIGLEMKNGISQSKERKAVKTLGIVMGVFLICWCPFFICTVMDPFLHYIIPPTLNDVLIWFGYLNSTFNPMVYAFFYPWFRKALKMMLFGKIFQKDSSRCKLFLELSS
Test: Agonist activity at recombinant human TAAR1 expressed in CHO-K1 cells assessed as increase in intracellular cAMP incubated for 30 mins by HTRF analysis
pEC50: −log10 of the molar value.
As shown below, each of these compounds has a reported pEC50 value.
Outcome measure: pEC50

>>> recorded_measurement("NCCc1ccc(O)cc1")
7.12
>>> recorded_measurement("COc1cc(CCN)ccc1O")
6.51
>>> recorded_measurement("NC[C@H](O)c1ccc(O)cc1")
5.80
>>> recorded_measurement("c1cc2c(s1)[C@H](CN1CCCC1)OCC2")
5.14
>>> recorded_measurement("CNC[C@]1(C)OCCc2ccsc21")
4.34
>>> recorded_measurement("NCCc1ccc(Oc2ccc(O)cc2)c(I)c1")
6.65
>>> recorded_measurement("CNC[C@@H]1OCCc2sccc21")
6.95
>>> recorded_measurement("CN(C)C[C@@H]1OCCc2ccsc21")
6.69
